Recorded values, source the NIST ThermoML archive (doi:10.1016/j.jct.2009.11.014).

Assay setup: 293.15 K; 100 kPa; Liquid; vibrating tube
Reported property: mass density (kg/m3)
Report only the number, with the unit kg/m3 understood.

In: Sample CCCCCCn1cc[n+](C)c1.F[B-](F)(F)F [1-hexyl-3-methylimidazolium tetrafluoroborate] — what was its mass density?
Out: 1148.92

In: Sample CCCCn1cc[n+](C)c1.F[B-](F)(F)F [1-butyl-3-methylimidazolium tetrafluoroborate] — what was its mass density?
Out: 1205.25

In: Sample CCn1cc[n+](C)c1.F[B-](F)(F)F [1-ethyl-3-methylimidazolium tetrafluoroborate] — what was its mass density?
Out: 1289.36

In: Sample CCCCCCCC[n+]1ccn(C)c1.F[B-](F)(F)F [1-methyl-3-octylimidazolium tetrafluoroborate] — what was its mass density?
Out: 1107.68
